Molecular target: MK2 (Homo sapiens, UniProt P49137)
Sequence (P49137 whole entry): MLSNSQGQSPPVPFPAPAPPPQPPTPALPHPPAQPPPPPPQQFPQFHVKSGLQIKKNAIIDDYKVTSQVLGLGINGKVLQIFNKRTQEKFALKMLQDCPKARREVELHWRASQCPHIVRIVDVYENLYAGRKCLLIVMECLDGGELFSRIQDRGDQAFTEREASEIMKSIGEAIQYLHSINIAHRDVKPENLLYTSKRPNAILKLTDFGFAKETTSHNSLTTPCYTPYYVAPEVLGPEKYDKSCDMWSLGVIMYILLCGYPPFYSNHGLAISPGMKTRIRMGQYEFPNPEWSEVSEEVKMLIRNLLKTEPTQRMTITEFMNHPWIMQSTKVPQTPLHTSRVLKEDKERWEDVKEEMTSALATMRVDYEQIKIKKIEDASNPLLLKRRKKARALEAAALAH
Assay: MK2 degradation in human SW1353 cells (MSD, 24 h)
Type: cell-based
Set-up: endogenous in cells; host or cells: SW-1353 (ATCC HTB-94)
Conditions: read-out: MK2 MSD SW1353 degradation 24 h GMean External Abs DC50
MEASURED PARAMETER: DC50

Lookup: I would be grateful if you could share the reported DC50 for C[C@@H]1CNc2c(sc3ccc4nc(-c5cccc(C#CCCNC(=O)CCCCCCCCCc6ccc7c(c6)n(C)c(=O)n7C6CCC(=O)NC6=O)c5)ccc4c23)C(=O)N1 (some centres unmarked) .
Found: 10 to 100 nM

###

Molecular target: MK2 (Homo sapiens)
Assay: MK2 degradation in human THP-1 monocytic cells (MSD, 24 h)
Type: cell-based
Parameters: endogenous in cells
Settings: THP-1, THP-1 cells
Experimental: MK2 Degradation in Human THP-1 Monoctyic Cells […] After 3 more washes, the secondary detection antibody (SULFO-Tag anti rabbit antibody R32AB-5) was added at a final concentration of 1 microgram per ml at 25 microlitres per well and shaken at room temperature for 1 hour at 600 rpm. After 3 more washes, the 1×MSD (diluted from 5× concentrate with water) reading buffer was added at 150 microlitres per well and read on the MSD instrument Meso Sector S 600. […]
MEASURED PARAMETER: Dmax

Below: 2 compounds and their reported Dmax.
| COMPOUND | TEST SYSTEM | Dmax |
| --- | --- | --- |
| O=C1CCN(c2cncc3c(N4CC(CN5CCN(c6ccc(-c7cc(-c8cc9c([nH]8)C8(CC8)CNC9=O)ccn7)cc6)CC5)C4)cccc23)C(=O)N1 | MK2 (Homo sapiens) | > 75% |
| C[C@@H]1CNc2c(sc3ccc4nc(-c5ccc(N6CCN(CCCCCCCCc7ccc8c(c7)n(C)c(=O)n8C7CCC(=O)NC7=O)CC6)cc5)ccc4c23)C(=O)N1 (stereo partly drawn) | MK2 (Homo sapiens) | > 75% |

Lookup: I would be grateful if you could share the reported Dmax for C[C@@H]1CNc2c(sc3ccc4nc(-c5cnc(N6CCC(CN7CCN(c8cccc9c8n(C)c(=O)n9C8CCC(=O)NC8=O)CC7)CC6)nc5)ccc4c23)C(=O)N1 (stereo partly drawn) .
Found: > 75%

###

// DC50 lookup, one value per entry
Target: MK2 (Homo sapiens)
Experiment: MK2 degradation in human THP-1 monocytic cells (MSD, 24 h)
Type: cell-based
Set-up: endogenous in cells
Conditions: THP-1 cells, read-out: MK2 MSD THP-1 degradation 24 h GMean External Abs DC50
Protocol: MK2 Degradation in Human THP-1 Monoctyic Cells […] After 3 more washes, the secondary detection antibody (SULFO-Tag anti rabbit antibody R32AB-5) was added at a final concentration of 1 microgram per ml at 25 microlitres per well and shaken at room temperature for 1 hour at 600 rpm. After 3 more washes, the 1×MSD (diluted from 5× concentrate with water) reading buffer was added at 150 microlitres per well and read on the MSD instrument Meso Sector S 600. […]

Below: 10 compounds and their reported DC50.
| COMPOUND | DC50 |
| --- | --- |
| C[C@@H]1CNc2c(sc3ccc4nc(N5C6CCC5CN(CC5CCN(c7cccc8c7n(C)c(=O)n8C7CCC(=O)NC7=O)CC5)C6)ccc4c23)C(=O)N1 (some centres unmarked) [Compound I-435] | > 100 nM |
| C[C@@H]1CNc2c(sc3ccc4nc(-c5cncc(N6CCN(CCCCCc7cccc8c7n(C)c(=O)n8C7CCC(=O)NC7=O)CC6)c5)ccc4c23)C(=O)N1 (some centres unmarked) [Compound I-156] | < 1 nM |
| Cc1cc(-c2ccc3c(ccc4sc5c(c43)NC[C@@H](C)NC5=O)n2)cnc1N1CCN(CCCc2ccc3c(c2)n(C)c(=O)n3C2CCC(=O)NC2=O)CC1 (some centres unmarked) [Compound I-258] | 1 to 10 nM |
| C[C@@H]1CNc2c(sc3ccc4nc(-c5ccc(N6CCN(CCCCCCCCc7ccc8c(c7)n(C)c(=O)n8C7CCC(=O)NC7=O)CC6)cc5)ccc4c23)C(=O)N1 (some centres unmarked) [Compound I-175] | 1 to 10 nM |
| C[C@@H]1Cc2oc(-c3ccnc(-c4ccc(N5CCN(CC6CCN(c7ccc8c(c7)n(C)c(=O)n8C7CCC(=O)NC7=O)CC6)CC5)nc4)c3)cc2C(=O)N1 (some centres unmarked) [Compound I-209] | > 100 nM |
| C[C@@H]1CNc2c(sc3ccc4nc(-c5ccc(N6CCC7(CC6)CN(CCCCCCc6cccc8c6n(C)c(=O)n8C6CCC(=O)NC6=O)C7)cc5)ccc4c23)C(=O)N1 (some centres unmarked) [Compound I-294] | < 1 nM |
| C[C@@H]1Cc2oc(-c3ccnc(-c4ccc(N5CCN(CC6CN(c7ccc8c(c7)n(C)c(=O)n8C7CCC(=O)NC7=O)C6)CC5)nc4)c3)cc2C(=O)N1 (some centres unmarked) [Compound I-417] | 1 to 10 nM |
| C[C@@H]1CNc2c(sc3ccc4nc(-c5ccc(N6CCN(CC7CCN(c8ccc(C9CCC(=O)NC9=O)cc8)CC7)CC6)nc5)ccc4c23)C(=O)N1 (some centres unmarked) [Compound I-421] | 1 to 10 nM |
| Cn1c(=O)n(C2CCC(=O)NC2=O)c2ccc(N3CCC(CN4CCN(c5ccc(-c6cc(-c7cc8c([nH]7)C7(CCCC7)CNC8=O)ccn6)cc5)CC4)CC3)cc21 (centres unmarked) [Compound I-192] | < 1 nM |
| C[C@@H]1CNc2c(sc3ccc4nc(N5CCC(CN6CC7(C6)CN(c6ccc8c(c6)n(C)c(=O)n8C6CCC(=O)NC6=O)C7)CC5)ccc4c23)C(=O)N1 (some centres unmarked) [Compound I-439] | 1 to 10 nM |

Moving on to the next compound.
Lookup: I would be grateful if you could share the reported DC50 for Cn1c(=O)n(C2CCC(=O)NC2=O)c2ccc(N3CCC(CN4CCN(c5ccc(-c6cc(-c7cc8c([nH]7)C7(CC7)CNC8=O)ccn6)c(F)c5)CC4)CC3)cc21 (centres unmarked) [Compound I-218] .
Found: < 1 nM
